From: ChEMBL document CHEMBL5036329

Target: Bromodomain-containing protein 3 (Homo sapiens)
Sequence (Q15059 whole entry): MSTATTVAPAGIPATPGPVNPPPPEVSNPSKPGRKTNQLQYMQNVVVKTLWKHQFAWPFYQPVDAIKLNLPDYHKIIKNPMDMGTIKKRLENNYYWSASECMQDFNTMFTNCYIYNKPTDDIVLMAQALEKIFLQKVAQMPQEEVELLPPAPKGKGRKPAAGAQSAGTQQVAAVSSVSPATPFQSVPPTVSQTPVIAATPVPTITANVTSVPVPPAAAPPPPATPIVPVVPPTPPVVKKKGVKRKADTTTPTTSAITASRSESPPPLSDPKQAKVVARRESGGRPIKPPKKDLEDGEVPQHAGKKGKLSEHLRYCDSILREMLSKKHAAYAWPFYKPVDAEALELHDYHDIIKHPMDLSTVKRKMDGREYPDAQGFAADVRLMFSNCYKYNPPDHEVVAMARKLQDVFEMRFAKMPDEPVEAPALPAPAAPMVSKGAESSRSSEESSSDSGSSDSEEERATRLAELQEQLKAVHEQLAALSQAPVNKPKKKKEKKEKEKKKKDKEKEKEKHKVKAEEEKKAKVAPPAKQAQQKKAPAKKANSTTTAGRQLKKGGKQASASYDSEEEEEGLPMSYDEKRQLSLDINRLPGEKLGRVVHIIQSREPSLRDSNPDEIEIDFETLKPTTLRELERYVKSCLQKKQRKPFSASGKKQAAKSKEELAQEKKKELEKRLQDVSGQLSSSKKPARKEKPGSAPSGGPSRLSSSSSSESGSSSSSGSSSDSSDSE
Assay: Binding affinity to human partial length BRD3 BD1 expressed in bacterial expression system assessed as dissociation constant by BROMOscan assay
measured.endpoint: Kd (nM)
Reply numerically in nM, unit not repeated.

Request: What Kd value was documented for this compound, Cc1cc(C)cc(Oc2cccc(-c3c(C)nnn3C3CCN(CCN(C)C)CC3)n2)c1 ?
Response: 20

----------
Molecular target: Bromodomain testis-specific protein (Homo sapiens, UniProt Q58F21)
Experiment: Binding affinity to human partial length BRDT BD1 expressed in bacterial expression system assessed as dissociation constant by BROMOscan assay
measured.endpoint: Kd (nM)
Reply numerically in nM, unit not repeated.

Request: What Kd value was documented for this molecule, Cc1cc(C)cc(Oc2cccc(-c3c(C)nnn3C3CCN(CCN(C)C)CC3)n2)c1 ?
Response: 15
